# credit: the RNAGym collection of RNA variant scans (doi:10.1101/gr.219683.116)

B1: mRNA-splicing (parent)
chain: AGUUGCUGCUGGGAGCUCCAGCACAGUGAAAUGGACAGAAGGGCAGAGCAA

- Variants of: B1
- Assay Procedure: exon inclusion enrichment index; higher = more inclusion; WT1 exon 5 minigene, HEK293
Ranges used to classify exon inclusion enrichment index: group A: < 0.09; group B: ≥ 0.09 and < 2; group C: ≥ 2

Band assignment needed for U4C G5C C6G U7G C9A please.
group C

Band assignment needed for G5C C6G U7C U10C A31G please.
group C

Band assignment needed for G5A C6U U7A G8U C9A G33U G34U please.
group A

Band assignment needed for G5U G8U C9U A20C G21U please.
group A

Band assignment needed for G5C C6G U7C U10C A20G G21U please.
group C

Band assignment needed for G5C C6G U7C U10C C19U A20U please.
group B

Band assignment needed for A30C A31C please.
group B

Band assignment needed for G5A C6G U7G U10A please.
group A

Band assignment needed for G5C C6A U7C G8A U10A A35U C36U please.
group A

Band assignment needed for U4G G5U C6G U7G C9A please.
group A

Band assignment needed for G5C C6U G8C C9U U10C A35U please.
group B

Band assignment needed for G5C C6A U7C G8A U10A C18U please.
group A

Band assignment needed for G5A U7C G8A U10C A31U U32C please.
group C

Band assignment needed for G5A C6G U7G C9A U10C please.
group A

Band assignment needed for G33C G34C please.
group A

Band assignment needed for G5C C6A U7C G8A U10A U27G please.
group A

Band assignment needed for G5A U7C G8A C9G U10C please.
group B

Band assignment needed for G5A U7C G8A U10C G43A please.
group C

Band assignment needed for C6A U7A C9A U10A C19A A20G please.
group A

Band assignment needed for U4C G5A C6U G8C C9U U10C please.
group B

Band assignment needed for G5C C6U G8C C9U U10C A14G please.
group B

Band assignment needed for G2A U3A please.
group A

Band assignment needed for U4A C6A U7A C9A U10A please.
group B

Band assignment needed for U4C G5C C6U U7A G8U C9A please.
group B

Band assignment needed for G5A U7C G8A U10C G11A G12C please.
group B

Band assignment needed for G5C C6A U7C G8A U10A A39U please.
group A

Band assignment needed for G5C C6G U7C U10C G38A A39C please.
group C

Band assignment needed for G5U G8U C9U C24A A25U please.
group B

Band assignment needed for C6A U7C C9A U10C A39C A40U please.
group C

Band assignment needed for G5A C6U U7A G8U C9A G38A A39G please.
group A

Band assignment needed for C6A U7C C9A U10C G33A please.
group B

Band assignment needed for G5C C6A U7C G8A U10A A25G please.
group B

Band assignment needed for G5A U7C G8A C9G please.
group B

Band assignment needed for G5C C6G U7C U10C A40G G41C please.
group C

Band assignment needed for G5A C6U U7A G8U C9A G42U please.
group B

Band assignment needed for G2U G5C C6G U7C U10C please.
group C
